B1: HDAC6 (parent)
chain: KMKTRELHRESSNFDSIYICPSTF

Variants of: B1
Assay: protein stability index of a GFP-peptide fusion (GPS, HEK-293T) (PSI 1-6); higher = more stable;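 further: lentivirally expressed fusions sorted by FACS into six bins by GFP to DsRed ratio, PSI derived from sequencing read proportions per bin multiplied by bin number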
Settings: c terminus: a fixed tail appended
Parameter threshold = 2. Response is Yes when protein stability index meets or exceeds it, else No.

As a guide, the following entries are already answered.
{"columns": ["Mutation Name", "Answer Label"],
 "data": [
  ["I19N", "Yes"],
  ["D15Y", "No"],
  ["E10Q", "No"],
  ["E10A", "Yes"],
  ["R9S", "Yes"]
]}

[in] // inclusive: protein stability index at least 2? input: R9G
[out] Yes

[in] // inclusive: protein stability index at least 2? input: S22V
[out] No

[in] // inclusive: protein stability index at least 2? input: M2Q
[out] Yes

[in] // inclusive: protein stability index at least 2? input: S16R
[out] Yes

[in] // inclusive: protein stability index at least 2? input: R9P
[out] Yes

[in] // inclusive: protein stability index at least 2? input: I17Y
[out] Yes

[in] // inclusive: protein stability index at least 2? input: P21H
[out] No

[in] // inclusive: protein stability index at least 2? input: I19M
[out] No

[in] // inclusive: protein stability index at least 2? input: E6Q
[out] Yes

[in] // inclusive: protein stability index at least 2? input: S11P
[out] Yes

[in] // inclusive: protein stability index at least 2? input: S12C
[out] No

[in] // inclusive: protein stability index at least 2? input: T4R
[out] Yes

[in] // inclusive: protein stability index at least 2? input: K3Q
[out] Yes

[in] // inclusive: protein stability index at least 2? input: S12E
[out] Yes

[in] // inclusive: protein stability index at least 2? input: I19C
[out] Yes

[in] // inclusive: protein stability index at least 2? input: S22N
[out] Yes

[in] // inclusive: protein stability index at least 2? input: N13I
[out] No

[in] // inclusive: protein stability index at least 2? input: F14C
[out] Yes

[in] // inclusive: protein stability index at least 2? input: F14S
[out] Yes

[in] // inclusive: protein stability index at least 2? input: R9H
[out] Yes
